System: SF-268 CNS
Experiment: NCI tumour cell line growth inhibition, 48 h
propertyLabel: GI50

Problem: Which value of GI50 has been reported for CCN(CC)CCC(CNc1c2ccc(Cl)cc2nc2ccc(OC)cc12)c1ccccc1 (stereo not given) in the records?
Solution: 1330 nM

Problem: Let us now turn to COC(=O)c1cc2c([nH]c3ccccc32)c(-c2nc3cc(N(S(=O)(=O)c4ccc(C)cc4)S(=O)(=O)c4ccc(C)cc4)c(OC)cc3cc2CO)n1
Solution: > 100000 nM

Problem: Let us now turn to CN(C)c1ccc(/C=C/C(=O)c2ccc(Nc3nc(Nc4ccc(F)cc4)nc(Nc4ccc(Cl)cc4)n3)cc2)cc1
Solution: 6750 nM

Problem: Let us now turn to Oc1c(Br)cc(Br)c2cccnc12
Solution: 3360 nM

Problem: Let us now turn to CN(C)CCCn1c2c(c3ccncc3c1=O)C(=O)c1ccccc1-2
Solution: 1470 nM

Problem: Let us now turn to C[As](C)SCC(COC(=O)c1ccccc1)OC(=O)c1ccccc1 (stereo not given)
Solution: 344 nM

Problem: Let us now turn to CNCc1ccc(C)c(NC(=O)c2ccc(Nc3nc(-c4ccccc4)c4ccccc4n3)cc2)c1
Solution: 2090 nM

Problem: Let us now turn to COc1ccc(/C=C2\CC(C)CC3C2=NN(C(C)=O)C3c2ccc(OC)c(OC)c2)cc1OC (stereo not given)
Solution: 14600 nM

Problem: Let us now turn to COc1cc2c(cc1Nc1nc(Nc3ccsc3C(N)=O)c3cc[nH]c3n1)N(C(=O)CN(C)C)CCC2
Solution: 1150 nM

Problem: Let us now turn to CN1CCN(Cc2ccc(NC(=O)c3cncc(C#Cc4c(N)ncc5ccc(F)cc45)c3)cc2C(F)(F)F)CC1
Solution: 783 nM

* * *

Tested on: SR leukemia
Assay: NCI tumour cell line growth inhibition, 48 h; in the data active = GI50 below about 0.43 µM; inactive = the rest
Give one outcome, nothing more. List: TRUE (active), FALSE (inactive)

Problem: How was N=C(N)c1ccc(-c2ccc(-c3ccc(Cl)cc3)s2)s1 classified in this test?
Solution: TRUE

Problem: Let us now turn to COc1cccc2c1C(=N)c1c(O)c3c(c(O)c1C2=O)C[C@@](O)(C(C)=O)C[C@@H]3OC1CC(N)C(O)C(C)O1 (some centres not stated)
Solution: TRUE

Problem: Let us now turn to CCOC(=O)c1ccccc1NC(c1ccccc1)c1ccc2cccnc2c1O (configuration not stated)
Solution: FALSE

Problem: Let us now turn to COc1ccc(-c2nccn2-c2cc(OC)c(OC)c(OC)c2)cc1
Solution: FALSE

Problem: Let us now turn to COc1ccc2c(c1)CCC1C2CCC2(C)C1CC[C@@]2(O)CNC(=O)/C=C/c1ccc(O)c(O)c1 (some centres not stated)
Solution: FALSE

Problem: Let us now turn to Cc1nc2cc(NC(=O)CN3CCN(CCN4C(=O)c5cccc6cccc(c56)C4=O)CC3)ccc2s1
Solution: FALSE

Problem: Let us now turn to C[CH2][Ge]1([CH2]C)[CH2]CC2(CCN(CCCN(C)C)C2)C[CH2]1
Solution: TRUE

Problem: Let us now turn to Oc1c(Br)cc(Br)c2cccnc12
Solution: FALSE

Problem: Let us now turn to CNCc1ccc(C)c(NC(=O)c2ccc(Nc3nc(-c4ccccc4)c4ccccc4n3)cc2)c1
Solution: FALSE

Problem: Let us now turn to CC(=O)OC1C(OC/C2=C/C3[C@@H](C(C)C)CC=C(C)[C@@H]3CC(OC(=O)/C=C/c3cn(C)cn3)[C@]3(C)C=C[C@@]2(O)O3)OCC(O)C1O (some centres not stated)
Solution: TRUE

Problem: Let us now turn to COc1ccc(/C(C)=C(\c2ccc(Cl)cc2)c2ccc(OCCN3CCCCC3)cc2)cc1F
Solution: FALSE

Problem: Let us now turn to COc1ccc(/C=C2\CN(Cc3cn(CCCNc4ccnc5cc(Cl)ccc45)nn3)C/C(=C\c3ccc(OC)cc3)C2=O)cc1
Solution: FALSE

* * *

Tested on: U251 CNS
Experiment: NCI tumour cell line growth inhibition, 48 h
Values of TGI greater than or equal to 30 µM map to 1; values below map to -1.

Problem: In plain terms: is recorded TGI at least 30 µM for O=C(CN1C(=O)c2ccccc2C1=O)NC1(C(=O)O)CCCC1 ?
Solution: 1

Problem: Let us now turn to O=C1/C(=C/c2ccc([N+](=O)[O-])s2)Oc2ccc(Cl)cc21
Solution: -1

Problem: Let us now turn to Cn1cnc2nc(Cl)nc(Cl)c21
Solution: -1

Problem: Let us now turn to C=C1C(=O)O[C@H]2[C@H]1CC/C(Cn1cc(CNC(=O)c3cc4ccccc4[nH]3)nn1)=C\CC[C@@]1(C)O[C@@H]21
Solution: -1

Problem: Let us now turn to C=CC(C)(C)c1cc([C@@H]2COc3cc(O)ccc3C2=O)c(O)c(OC)c1OC
Solution: -1

Problem: Let us now turn to COc1c(-c2ccc3c(c2)OCO3)oc2cc3c(c(OC)c2c1=O)OCO3
Solution: 1

Problem: Let us now turn to O=C1c2ccccc2CC1C1(O)C(=O)Nc2c(Cl)cc(Cl)cc21 (stereo not given)
Solution: 1

Problem: Let us now turn to C#Cc1cccc(NC(=O)Nc2cccc(NC(=O)CCl)c2)c1
Solution: 1

Problem: Let us now turn to O=C(CSCC(=O)N/N=C\c1cc(Br)cc(Br)c1O)N/N=C\c1cc(Br)cc(Br)c1O
Solution: -1

Problem: Let us now turn to N#Cc1c(C#N)c(-c2ccco2)n(/N=C/c2ccco2)c1N
Solution: 1

Problem: Let us now turn to COC(=O)c1ccc2[nH]c3c(c2c1)CC(=O)Nc1ccccc1-3
Solution: 1

Problem: Let us now turn to CCOc1ccccc1Nc1nc(C)c(C(=O)CC(=O)C(=O)Nc2ccccc2)s1
Solution: 1

Problem: Let us now turn to O=C(NC(c1ccccc1)C(O)C(=O)OCc1ccc2c(c1)C(=O)c1ccccc1C2=O)c1ccccc1 (stereo not given)
Solution: -1

Problem: Let us now turn to C[C@H]1C(=O)C2=C[C@H]1CCC(=O)[C@]1(C)CCCC(C)(C)[C@H]1C[C@H]2O
Solution: -1

Problem: Let us now turn to COC(=O)c1c(OC(=O)c2ccccc2)noc1CC(=O)OC1C=CCCC1 (stereo not given)
Solution: 1

* * *

Test system: SNB-19 CNS
Assay: NCI tumour cell line growth inhibition, 48 h
Answer each item with its documented TGI.

Problem: Lab note: need TGI with SNB-19 CNS for entry COC(=O)c1cc(CNCCc2c[nH]c3ccccc23)on1 , please look it up.
Solution: > 100 µM

Problem: Let us now turn to NCCN.O=N[O-].O=N[O-].O=N[O-].O=N[O-].[Co+3].[K+]
Solution: > 100 µM

Problem: Let us now turn to CCC1OC(=O)C(C)C(OC2CC(C)(O)C(O)C(C)O2)C(C)C(O)C(C)(O)CC(C)C(=O)C(C)C(O)C1C (stereo not given)
Solution: > 300 µM

Problem: Let us now turn to Cn1c(N)c(N=Nc2ccc(S(N)(=O)=O)cc2)c(=O)n(C)c1=O
Solution: > 100 µM

Problem: Let us now turn to CC1(C)CC(=O)C2=C(C1)OC1=C(CC(C)(C)CC1=O)C2c1ccccc1Cl (stereo not given)
Solution: > 100 µM

Problem: Let us now turn to CCC(c1ccc(N(C)C)cc1)C1NC(=S)NC1=O (stereo not given)
Solution: > 100 µM

Problem: Let us now turn to CCC1(CC)C(=O)N(C(=O)c2ccc(Cl)cc2)N(C(=O)c2ccccc2Cl)C1=O
Solution: > 100 µM

Problem: Let us now turn to O=C(N/N=C/c1cc(-c2ccccc2Cl)c(-c2ccccc2Cl)o1)c1ccncc1
Solution: > 100 µM

Problem: Let us now turn to O=C1C2=C(Nc3cc([N+](=O)[O-])ccc3N2)OC1c1c[nH]c2ccc(COc3ccccc3)cc12 (stereo not given)
Solution: > 100 µM

Problem: Let us now turn to Cc1ccc(S(=O)(=O)NC(CCCCN)C(=O)CCl)cc1 (stereo not given)
Solution: > 100 µM

Problem: Let us now turn to Clc1ccc(CCn2ccc3ccccc32)c(Cl)c1
Solution: > 100 µM

Problem: Let us now turn to O=C(NC(c1ccccc1)C(O)C(=O)OCc1ccc2c(c1)C(=O)c1ccccc1C2=O)c1ccccc1 (stereo not given)
Solution: 18.3 µM

Problem: Let us now turn to CCS(=O)(=O)Nc1ccc(Oc2ccc(F)cc2F)c(-c2cn(C)c(=O)c3[nH]ccc23)c1
Solution: 30.9 µM

Problem: Let us now turn to C=CCn1c(=O)c(-c2ccccc2)c(O)c2ccccc21
Solution: > 100 µM

Problem: Let us now turn to O=C(C(Cl)=C(Nc1ccccc1)Nc1ccccc1)C(Cl)Cl
Solution: 71.3 µM

Problem: Let us now turn to O=C1NC(N2CCCC(CO)C2)=N/C1=C\c1ccc(O)cc1 (stereo not given)
Solution: > 100 µM

Problem: Let us now turn to Cc1nc2c(=O)n(C)c(=O)nc-2n(-c2ccc(Cl)cc2)c1C
Solution: > 100 µM

Problem: Let us now turn to CC(=O)/C=C\C(=O)NNS(=O)(=O)c1ccc(C)cc1
Solution: > 100 µM

Problem: Let us now turn to Cc1cccc2ns[s+]c12
Solution: > 100 µM

Problem: Let us now turn to Cc1nn(-c2ccccc2)c2ncc3c(c12)C(=O)N(Cc1ccccc1)C3=O
Solution: > 100 µM

Problem: Let us now turn to COC(=O)c1c(OC(=O)c2ccccc2)noc1CC(=O)OC1C=CCCC1 (stereo not given)
Solution: > 100 µM

Problem: Let us now turn to N#CC1=C(N)Oc2c(ccc3ccccc23)C1c1ccccc1Cl (stereo not given)
Solution: 23.1 µM

Problem: Let us now turn to COC(=O)c1ccc2[nH]c3c(c2c1)CC(=O)Nc1ccccc1-3
Solution: > 100 µM

Problem: Let us now turn to CC/C(=C(\c1ccccc1)c1ccc(OCC[N+](C)(C)C)cc1)c1ccccc1
Solution: 37.1 µM

Problem: Let us now turn to O=C(/C=C\c1ccc(Cl)c(Cl)c1)c1ccccc1
Solution: 23.6 µM
